# TEST SYSTEM: T1, RHAU53 peptide (53-aa RHAU/DHX36 G4-binding fragment) (UniProt Q9H2U1 Q9H2U1:53-105)
# T1 chain: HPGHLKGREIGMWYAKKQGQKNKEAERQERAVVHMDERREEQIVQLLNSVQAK
# TEST METHOD NOTES: EMSA; 25 mM Tris-HCl pH 7.5, 150 mM KCl, 1 mM MgCl2, 37 C
# MEASUREMENT CONTEXT: label: 3'-FAM
READOUT: pKd
Interpret pKd as the negative base-10 log of the concentration measured in mol/L.

Given the entry GGGUUGCGGAGGGUGGGCCU (ssRNA, 5'-hexynyl clicked to azide-modified AHPC) [FAM_rG4_A (hTERC rG4 WT-AHPC conjugate)] , report its measured pKd. 7.17
